test: gradient 5% acetonitrile 3 min, to 50% in 2 min, to 85% in 15 min, held 3 min, 100 µL/min; conditions: column: Zorbax Extend-C18 2.1 x 50 mm; eluents: water / acetonitrile, 0.1% formic acid
experimental.endpoint: RP-LC retention time (s)

// below: answered compounds
{"columns": ["compound", "RP-LC retention time (s)"],
 "data": [
  ["CC(C)(C)CC(=O)Nc1cnc(-c2ccc(Cl)cc2)nc1", 1130],
  ["CCS(=O)(=O)N1CC(=O)N(c2ccc(F)cc2C)C(C)(C(=O)NCc2ccc(F)cc2)C1 (centres undefined)", 832],
  ["Cc1ccc(CNC(=O)C2(C)CN(S(C)(=O)=O)CC(=O)N2c2cc(Cl)ccc2C)cc1 (centres undefined)", 829],
  ["Cc1oc(-c2[nH]ncc2C(=O)N2CCCC2)cc1S(=O)(=O)NCc1cccc(F)c1", 706],
  ["Cc1ccc(C(=O)N2CCn3c(nnc3C(C)C)C2)s1", 625]
]}

P = COCCc1noc(C2CN(C(=O)c3cn(C)cn3)C2)n1
Q = O=C(C1CC1)N1CCc2sc(S(=O)(=O)Nc3ccc(F)cc3)cc2C1
R = CCCN(C(C)=O)c1nc(-c2ccc(Br)cc2)cs1
Data request: Sort ascending by RP-LC retention time. Enter labels, ranked according to the request.
Data returned: P, Q, R
(P: 555 s, Q: 799 s, R: 1240 s)

* * *

assay: gradient 5% acetonitrile 3 min, to 50% in 2 min, to 85% in 15 min, held 3 min, 100 µL/min; conditions: column: Zorbax Extend-C18 2.1 x 50 mm; eluents: water / acetonitrile, 0.1% formic acid
experimental.endpoint: RP-LC retention time (s)

{"columns": ["compound", "assay.value"],
 "data": [
  ["CC(C)NC(=O)c1sc(-n2cccc2)nc1C(C)C", 1060],
  ["CCOC(=O)Cc1[nH]nc2ccc(F)cc12", 697],
  ["CC1CCCN(c2ccn3c(=O)n(CC(=O)N(C)c4ccccc4)nc3n2)C1 (stereo unspecified)", 742],
  ["Cc1ccc(CN2C(=O)NC3(CCN(C(=O)COc4ccc(C)cc4)CC3)C2=O)cc1", 876],
  ["CCC(=O)N1CCc2c([nH]c3ccc(Cl)cc23)C12C(=O)N(C)c1ccccc12 (stereo unspecified)", 901],
  ["O=C(Nc1ccccc1)C1CCCN(S(=O)(=O)c2c[nH]c(C(=O)N3CCCC3)c2)C1 (stereo unspecified)", 769],
  ["CCCN1C(=O)Cc2cc(C(=O)N3CCN(c4ccc(OC)cc4)CC3)ccc21", 748],
  ["O=C(NCCc1noc(C2CC2)n1)c1ccoc1", 664],
  ["CC1=C(C(=O)Nc2cccc(Cl)c2C)C2(CCCCCC2)OC1=O", 1090],
  ["CCCN(CCC)Cc1ccc(CNC(=O)C2CCCN(c3nnc(N4CCCC4=O)s3)C2)o1 (stereo unspecified)", 614],
  ["CC(C)(C)c1ccc(C(=O)Nc2ccc3c(c2)C(=O)NC3=O)cc1", 853],
  ["Cc1nnc(NC(=O)Cc2csc(SCC(=O)c3ccc(F)cc3)n2)s1", 724],
  ["Cc1c2ccncc2cc2c1[nH]c1ccccc12", 637],
  ["COC(=O)c1ccc2c(=O)n(-c3cc(C)cc(C)c3)c(N3CCN(C(C)C)CC3)nc2c1", 695],
  ["Cc1ccc(CN2CCn3nnc(CCC(=O)N4CCCC4)c3C2)s1", 651],
  ["O=C(CCn1cnc2cc(-c3noc(-c4cccc5[nH]ccc45)n3)ccc21)N1CCCC1", 701],
  ["O=C(c1cn(-c2cc(-c3nc(C4CC4)no3)ccn2)cn1)N1CCCCC1", 810],
  ["COCCN1C(=O)CCc2c(C)nc(-c3cccnc3)nc21", 614],
  ["COc1ccc(OC)c(S(=O)(=O)Cc2nc(-c3ccccc3C)no2)c1", 990],
  ["CCc1ccc(-n2ncc3c(=O)n(Cc4nc(-c5ccccc5OC)no4)cnc32)cc1", 1040],
  ["COc1ccc(NC(=O)c2cnc3c(c2)c(=O)n(C)c(=O)n3-c2ccc(C)cc2)cc1F", 849]
]}

* * *

assay: gradient 5% acetonitrile 3 min, to 50% in 2 min, to 85% in 15 min, held 3 min, 100 µL/min; details: column: Zorbax Extend-C18 2.1 x 50 mm; eluents: water / acetonitrile, 0.1% formic acid
experimental.endpoint: RP-LC retention time (s)

{"columns": ["compound", "experimental.endpoint", "assay.value"],
 "data": [
  ["CCCN(CC(=O)N1CCc2sccc2C1COc1ccccc1OC)C(=O)COC (stereo not given)", "RP-LC retention time", 800],
  ["O=C(NCC(c1ccco1)N1CCN(c2ccc(F)cc2)CC1)c1ccsc1 (stereo not given)", "RP-LC retention time", 603],
  ["O=C(CCc1c(-c2ccc(Br)cc2)nc2ccccn12)NCc1cccnc1", "RP-LC retention time", 557],
  ["Cc1oc(C2CCN(C(=O)Cc3c(F)cccc3Cl)CC2)nc1C(=O)N1CCCC1", "RP-LC retention time", 848],
  ["O=C(Cc1cccs1)N1CCN(c2ccc(-c3noc(C4CC4)n3)cc2)CC1", "RP-LC retention time", 934],
  ["CCOCCCNC(=O)Nc1ccc2nc3n(c(=O)c2c1)CCCC3", "RP-LC retention time", 563]
]}

P = COC(=O)c1cccc(NC(=O)N2CCC3(CC2)NC(=O)c2ccccc2O3)c1
Q = CCCCOC(=O)c1ccc(Nc2nc(C(=O)OCC)nc3ccccc23)cc1
Data request: Between the entries labeled P and Q , whose measured RP-LC retention time is lower? Respond using the label that marks the chosen record.
Data returned: P

A = COc1ccccc1CN1CCc2nc(N3CCN(c4ccccc4F)CC3)ncc2C1
B = CCN1CCN(CCNC(=O)C2CCCN(C(=O)c3[nH]c(C)c(C(=O)OC)c3C)C2)CC1 (stereo not given)
Data request: Between the entries labeled A and B , whose measured RP-LC retention time is lower? Respond using the label that marks the chosen record.
Data returned: B
(B: 565 s, A: 808 s)

1 = Cc1cc(F)cc2c(=O)c3c([nH]c12)CCN(CC(=O)Nc1cccc(Cl)c1)C3
2 = O=c1ccc(-c2ccc3c(c2)OCO3)nn1Cc1nc(-c2ccc3c(c2)OCO3)no1
Data request: RP-LC retention time comparison. Which is larger, 1 or 2 ? Respond using the label that marks the chosen record.
Data returned: 2

a = O=S(=O)(NCC(c1ccco1)N1CCN(c2ccccc2F)CC1)c1cccs1 (stereo not given)
b = COc1ccc(NC(=O)c2c(O)c3sccc3n(C)c2=O)cc1Cl
Data request: RP-LC retention time comparison. Which is larger, a or b ? Respond using the label that marks the chosen record.
Data returned: b

* * *

test: gradient 5% acetonitrile 3 min, to 50% in 2 min, to 85% in 15 min, held 3 min, 100 µL/min; details: column: Zorbax Extend-C18 2.1 x 50 mm; eluents: water / acetonitrile, 0.1% formic acid
experimental.endpoint: RP-LC retention time (s)

{"columns": ["compound", "RP-LC retention time [s]"],
 "data": [
  ["CN1C(=O)c2cc(C(=O)N3CCN(c4ncccn4)CC3)nn2CC1(C)C(=O)NC1CCCCC1 (centres undefined)", 702],
  ["CCOc1ccc(-c2nc3ncccn3c2NCc2ccccc2)cc1", 758],
  ["Cn1c(=O)c2c(nc(Cc3ccccc3)n2C)n(C)c1=O", 764],
  ["Cn1nccc1C(=O)N1CCCCCCNC(=O)[C@@H]2CCCC[C@@H]21", 705]
]}

* * *

assay: gradient 5% acetonitrile 3 min, to 50% in 2 min, to 85% in 15 min, held 3 min, 100 µL/min; conditions: column: Zorbax Extend-C18 2.1 x 50 mm; eluents: water / acetonitrile, 0.1% formic acid
experimental.endpoint: RP-LC retention time (s)

// below: answered molecules
{"columns": ["molecule", "experimental.endpoint", "assay.value"],
 "data": [
  ["Cc1ccc(-c2nnc(-c3cccc(S(=O)(=O)N(C)C)c3)o2)cc1", "RP-LC retention time", 986],
  ["CNC(=O)Cc1csc(NC(=O)c2csc(Nc3cccc(C)n3)n2)n1", "RP-LC retention time", 711],
  ["CSc1ncccc1C(=O)Nc1ccc2c(c1)CCC(=O)N2C", "RP-LC retention time", 684],
  ["Cc1ccc(NC(=O)c2cc(C)n3nc(C)cc3n2)c(C)c1", "RP-LC retention time", 1140],
  ["Cn1c(N2CCN(S(=O)(=O)c3ccc(Cl)s3)CC2)nc2ccccc21", "RP-LC retention time", 614]
]}

1 = CCCN1C(=O)C2CCC(=O)N2c2ccc(C(=O)NC(C)(C)CC)cc21 (centres undefined)
2 = Cc1ncnc2c1CCC(=O)N2Cc1cccnc1
Data request: Between the entries labeled 1 and 2 , whose measured RP-LC retention time is lower? Respond using the label that marks the chosen record.
Data returned: 2

A = CCn1nccc1-c1cccc(-c2noc(C(NC(=O)c3ccco3)C(C)C)n2)c1 (centres undefined)
B = O=C(Nc1cccc(F)c1)N1CCN(c2cc(-c3ccncc3)[nH]n2)CC1
Data request: Between the entries labeled A and B , whose measured RP-LC retention time is lower? Respond using the label that marks the chosen record.
Data returned: B
(B: 606 s, A: 973 s)

P = O=C(Nc1cnc(N2CCOCC2)nc1)c1ccccc1Br
Q = Cc1ccc(Oc2nccnc2N2CCCC(C(=O)NCc3ccc(C)c(C)c3)C2)cc1 (centres undefined)
Data request: RP-LC retention time comparison. Which is larger, P or Q ? Respond using the label that marks the chosen record.
Data returned: Q
(Q: 1140 s, P: 725 s)
